# target_entity: HIV-1_(YU-2) gp140 trimer (HIV-1 YU-2)
# experiment_description: BLI; kinetic
Binary call on Kd with cut-off 2 nM: strictly below means yes (1), and equality or higher means no (0).

[
  {
    "binder": "IgG1 b12 EG Fc variant (antibody, V domains shown) VH: QVQLVQSGAEVKKPGASVKVSCQASGYRFSNFVIHWVRQAPGQRFEWMGWINPYNGNKEFSAKFQDRVTFTADTSANTAYMELRSLRSADTAVYYCARVGPYSWDDSPQDNYYMDVWGKGTTVIVSS VL: EIVLTQSPGTLSLSPGERATFSCRSSHSIRSRRVAWYQHKPGQAPRLVIHGVSNRASGISDRFSGSGSGTDFTLTITRVEPEDFALYYCQVYGASSYTFGQGTKLERK",
    "classification": "no (0)"
  },
  {
    "binder": "IgG1 b12 KA Fc variant (antibody, V domains shown) VH: QVQLVQSGAEVKKPGASVKVSCQASGYRFSNFVIHWVRQAPGQRFEWMGWINPYNGNKEFSAKFQDRVTFTADTSANTAYMELRSLRSADTAVYYCARVGPYSWDDSPQDNYYMDVWGKGTTVIVSS VL: EIVLTQSPGTLSLSPGERATFSCRSSHSIRSRRVAWYQHKPGQAPRLVIHGVSNRASGISDRFSGSGSGTDFTLTITRVEPEDFALYYCQVYGASSYTFGQGTKLERK",
    "classification": "no (0)"
  },
  {
    "binder": "IgG1 b12 (unmodified Fc) (antibody, V domains shown) VH: QVQLVQSGAEVKKPGASVKVSCQASGYRFSNFVIHWVRQAPGQRFEWMGWINPYNGNKEFSAKFQDRVTFTADTSANTAYMELRSLRSADTAVYYCARVGPYSWDDSPQDNYYMDVWGKGTTVIVSS VL: EIVLTQSPGTLSLSPGERATFSCRSSHSIRSRRVAWYQHKPGQAPRLVIHGVSNRASGISDRFSGSGSGTDFTLTITRVEPEDFALYYCQVYGASSYTFGQGTKLERK",
    "classification": "yes (1)"
  },
  {
    "binder": "IgG1 b12 LALA Fc variant (antibody, V domains shown) VH: QVQLVQSGAEVKKPGASVKVSCQASGYRFSNFVIHWVRQAPGQRFEWMGWINPYNGNKEFSAKFQDRVTFTADTSANTAYMELRSLRSADTAVYYCARVGPYSWDDSPQDNYYMDVWGKGTTVIVSS VL: EIVLTQSPGTLSLSPGERATFSCRSSHSIRSRRVAWYQHKPGQAPRLVIHGVSNRASGISDRFSGSGSGTDFTLTITRVEPEDFALYYCQVYGASSYTFGQGTKLERK",
    "classification": "no (0)"
  },
  {
    "binder": "IgG1 b12 EFTAE Fc variant (antibody, V domains shown) VH: QVQLVQSGAEVKKPGASVKVSCQASGYRFSNFVIHWVRQAPGQRFEWMGWINPYNGNKEFSAKFQDRVTFTADTSANTAYMELRSLRSADTAVYYCARVGPYSWDDSPQDNYYMDVWGKGTTVIVSS VL: EIVLTQSPGTLSLSPGERATFSCRSSHSIRSRRVAWYQHKPGQAPRLVIHGVSNRASGISDRFSGSGSGTDFTLTITRVEPEDFALYYCQVYGASSYTFGQGTKLERK",
    "classification": "no (0)"
  }
]
